Each entry below carries its reported pKd.
- targetUnderTest: T1, human CD20 (human, UniProt P11836 1-297)
- T1 construct: whole, on cells; Always presented on cells; also called MS4A1; CD20 WT
- T1 sequence (looked up): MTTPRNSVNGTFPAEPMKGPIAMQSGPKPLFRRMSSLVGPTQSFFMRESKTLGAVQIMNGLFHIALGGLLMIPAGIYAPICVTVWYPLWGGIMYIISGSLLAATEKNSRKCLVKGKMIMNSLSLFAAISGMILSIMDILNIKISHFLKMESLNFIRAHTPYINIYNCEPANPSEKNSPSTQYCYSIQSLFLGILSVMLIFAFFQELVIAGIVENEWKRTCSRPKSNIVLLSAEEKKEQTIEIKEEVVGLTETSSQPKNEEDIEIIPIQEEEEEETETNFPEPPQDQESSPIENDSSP
- testDescription: LigandTracer Green, 10 nM FITC-labeled mAb on SKBR3-CD20 cells, OneToOne fit, competitive dissociation (100 nM unlabeled mAb of the same clone)
The scale used: pKd is minus the common logarithm of the concentration in molar units.

[[record]]
binder = "m9 (mIgG2c-CD20 mAb) (antibody, V domains shown, FITC-labelled antibody in the LigandTracer assay; the label positions are not defined., Mouse IgG2c hybridoma mAb; FITC-labeled in LigandTracer) VH: QAYLQQSGAELVRPGASVKMSCKASGYTFPSYNMHWVKQTPRQGLEWIGAIYPGNGDTSYNQKFKGKASQTVDKSSSTVYMQLSSLTSADSAVYFCARSRLFDSSYGWYFDVWGTGTTVTVSS VL: QIVLSQSPAILSAYPGEKVTMTCRARSSVSYIDWYQQKAGSSPKPWIYATSNLASGVPARFSGSGSGTSYSLTISRVEAEDAATYYCQQWTSNPPTFGGGTKLEIK"
measurednumber = 9.92

[[record]]
binder = "m2 (mIgG2c-CD20 mAb) (antibody, V domains shown, FITC- or Alexa647-labelled in the kinetic assays; label sites not given, Mouse IgG2c hybridoma mAb; FITC- or Alexa647-labeled in the kinetic assays) VH: QAYLQQSGAELVRPGASVKMSCKASGYTFTSYNMHWVKQTPRQGLEWIGGIYPGNGDTSYNQKFKGKATLTVDKSSSTAYMQLSSLTSEDSAVYFCARYYYGSSYGAMDYWGQGTSVTVSS VL: QIVLSQSPAILSASPGEKVTMTCRASSSVSYMHWYQQKPGSSPKPWIYATSNLASGVPARFSGSGSGTSYSLTISRVEAADAATYYCHQWTFNPPTFGGGTKLEIK"
measurednumber = 9.02

[[record]]
binder = "m10 (mIgG2c-CD20 mAb) (antibody, V domains shown, FITC-labelled in the LigandTracer assay; label sites not given, Mouse IgG2c hybridoma mAb; FITC-labeled in LigandTracer) VH: QAYLQQSGADLVRPGASVKMSCKASGFTFPSYNLHWVKQTPRQGLEWIGAIYPGNGDTSYNQKFKGKATLTVDKSSSTAYMQLSSLTSEDSAVYFCARSAYYGSNVWFFDVWGTGTTVTVSS VL: QIVLSQSPAILSASPGEKVTMTCRASSSVSYMDWYQQKPGSSPKPWIYATSNLASGVPTRFSGSGSGTSYSLTISRVEAEDAATYYCQQWISNPPTFGAGTKLDLK"
measurednumber = 9.29


Let us move to another entry and its pKd.
Exercise: Item m1 (mIgG2c-CD20 mAb) (antibody, V domains shown, FITC- or Alexa647-labelled in the kinetic assays; label sites not given, Mouse IgG2c hybridoma mAb; FITC- or Alexa647-labeled in the kinetic assays) VH: QAYLQQSGAELVRPGASVKMSCKASGYTFTSYNLHWVKQTPRQGLEWIGAIYPGNGDTSYNQKFKGKATLTVDKSSSTAYMQLSRLTSEDSAVYFCARSNSYGSTYWYFDVWGTGTTVTVSS VL: QIVLSQSPAVLFASPGEKVTMTCRARSSVSYMDWYQQKPRSSPKPWIYATSNLASGVPARFSGSGSGTSYSLTISRVEAEDAATYYCQQWTSNPPTFGSGTKLEIK has what recorded pKd?
Solution: 8.58

Source of measurements: patent US20190263922A1
